assay: yeast display, Sf9 membrane polyspecificity reagent, FACS + sequencing; frameworks hold sequencing errors
property: polyreactivity (PSR sort gate)

biopolymer sequence	property	result
QVQLVESGGGLVQAGGSLRLSCAASGFIFVSYAMGWYRQAPGKERELVAAIDRIGGITYYADSVKGRFTIARDIAKNTVYLQMNSLKPEDTAVYYCAAAARYATVRVGREYYWGQGTQVTVSS	polyreactivity (PSR sort gate)	low polyreactivity
QVKRVESGGGLVQAGGSLRLSCAASGSTFYDYAMGWYRPAHGKQRELVAAINGNGDSTYYADSVKGRFTISRDNAKNTVYLQMNSLKPEDTAVYYCAAYLGWGYDYWGQGTQVTVSS	polyreactivity (PSR sort gate)	low polyreactivity
HGQLVESAAGLVQAGGSLRLSGAASGLIFYDNMGWYRQAPAKDRELVAAISSSGGSTSYADSVKGRFTISRDNAKNTFYLQMNSLKPEDTAVYYCAADSYPAYLGFVGFDYWGLGTQVTVSS	polyreactivity (PSR sort gate)	low polyreactivity
QVQLVESGGGLVQAGGSLRLSCAASGTIFDYNAMGWYRQAPGKERELVAAISWRGGTTYYADSVKGRFTISRDNAKNTVYLQMNSLKPEDTAVYYCAAGRRGVYHGGYWGQGTQVTVSS	polyreactivity (PSR sort gate)	high polyreactivity
QVQLVESGGGLVQAGGSLRLSCAASGFTFYYNAMGWYRQAPGKERELVASIRSGGSTKYADSVKGRFTISRDNAKNTVYLQMNSLKPEDTAVYYCAKERYHISFFYQMVYWGQGTQVTVSS	polyreactivity (PSR sort gate)	low polyreactivity
QVQLVESGGGLFQAGGRLRLSCAPSGGTLPKYAMAWYRHAPGKERELVARITWNDGTTYYADSVKGRFTISRDNAKNTVYLQMNSLIPEDTAVYYCNTDRAYWFLYPFSYYYWGQGTQVTVSS	polyreactivity (PSR sort gate)	low polyreactivity
QVQLVESGGGLVQAGGSLRLSCAASGSTFYPNARGWYRQAPGKERELVAAISWSGGRTYYADSEKGRFTISRDNAKNTVYLQMNSLKPEDTAVYYCYRYHRTSGRAKYDYWGQGTQVTVSS	polyreactivity (PSR sort gate)	high polyreactivity
QVQLVESGGGLVQGGGSLRLSCASSGNTFYYYAMGWYRQAPGKERELVAAITRGGSTNYADSVKGRFTISRDNAKNTVYLEMISLKPEDTSVYYCAAEQRAPRFADYDYWGQGTQVTVSS	polyreactivity (PSR sort gate)	low polyreactivity
QDQLGESGGGLVQAGGSLRLICAASGRIFPYYAMAWYRQAAGKEREFVASITKRRGSTSYADSVKGRFTISRDNAKNTVYLQMHSLKPEDTAVYYCAARRGSGMVTYYGGDYWGQGTQVTVSS	polyreactivity (PSR sort gate)	low polyreactivity
PVQLVDSGGGLVQAGGSLRLSCAASGKIFFGYTMGWYRTAPGKERELVAAITYRGGRTYYADSEKGRFTISRDNAKHTVYLQMNSLKPEDTAVYYFAVGGSGYGRYGGGYARDYWGQGTQVTVSS	polyreactivity (PSR sort gate)	high polyreactivity
QVQLVESGGGLVQAGGSLRLSCAASGSIFVYNAMGWYRQAPGKERELVAAISSTGGSTYYADSVKGRFTISRDNAKNTVYLQMNSLKPEDTAVYYCARQGRYTRGDYWGQGTQVTVSS	polyreactivity (PSR sort gate)	high polyreactivity

* * *

assay: yeast display, Sf9 membrane polyspecificity reagent, FACS + sequencing; frameworks hold sequencing errors
property: polyreactivity (PSR sort gate)

biopolymer sequence	result
QVQLVETGGLLVQAGGSLRLTCAGSGLIFYYYAMGCYRQAPGKERELVATISWYGGSTYADSVKGRFTISRDNAKNTVYLQMNSLKPEDPAVYYCAARYFVYYLEVDYWGQGTQVTVSS	low polyreactivity
QVQLVESGGGLVQAGGSLRLSCAASGRTFRVYVMGWYRQAPGKERELVAAIRSDASTNYADSVKGRFTISRDNAKNTVYLQMISLKPEDTAFYYCAARRGKSAGGYGDYYWGQGTQVTVSS	high polyreactivity
QVQLVESWGGLVQAGGSLRLSCAAYGIIFKYYAMGWYRQAPGKERELVAVITSNGARTYYADSVKGRFTISRDNAKNTVYLQMNSLKPEDTAVYYCNAYRLSVSVGYDYCGQGTQVTVSS	high polyreactivity
QVQLVESGGGLVQAGGSLRLSCAASGRIFVFNDMGWYRQAPGKERELVAAISSGGNTYYADSVKGRFTISRDNAKNTVYLQMNSLKPEDTAVYYCAKVSRWSYKGSPYDYWGQGTQVTVSS	high polyreactivity
QVHLVESGGGLVQAGGSLRLSCAAYGRSFSSNAMGWYGQAPGKERELVAAISSSGAGTYYADSVKGRFTISRDNAKNTVYLQMNRLKPEDTAVYYCAARANSYHSFTSHYDYWGQGTQVTLSS	low polyreactivity

* * *

experiment: yeast display, Sf9 membrane polyspecificity reagent, FACS + sequencing; frameworks hold sequencing errors

biopolymer sequence	polyreactivity (PSR sort gate)
QVQLVESGGGLVQAGGSLRLSCAASGFTFYTNAMGWYRQAPGKERELVAAITKSDGSTYYADSVKGRFTISRDNAKNTVYLQMNSLKPEDTAVYYCATERRYPYYGGIVIYDYWGQGTQVTVSS	low polyreactivity
QVQLVESGGGLVQAGGSLRLSCAASGFIFYKYAKGWYRQAPGKEREFVAAITWSGGNTYYADSVKGRFTISRDNAKNTVYLQMNSLKPEDTAVYYCAARDSKWGQGTQVTVSS	low polyreactivity

* * *

test: yeast display, Sf9 membrane polyspecificity reagent, FACS + sequencing; frameworks hold sequencing errors

biopolymer sequence	polyreactivity (PSR sort gate)
QVQLVESGGGLVQAGGSLRLSCAASGSIFSFYAMGWYRQAPGKERELVASITRRGGSTSYADSVKGRFTISRDNAKNTVYLQMNSLKPEDTAVYYCATESKFISVQRVGYYYVKFDYWGQGTQVTVSS	high polyreactivity
QVQLVESGGGLVQAGGSLRLSCAAYGRTFNDYAMGWYRQAPGKERELVAAIDSDGDTNYADSVKGRFTISRDNAKNTVYLQMNSLKPEDTAVFYCNAVRLVVQEWYYYFTFDYWGQGTQVTVSS	low polyreactivity
QVQLVESGGGLVQAGGSLRLSFAPSGNSFGRYAMGWYRQAPGKERELVAAITRSGGTTYYADSVKGRFTLSRDNAKNTGYLQMNSLKPEDTAVYYCATDGDSTKLDYWGQGTQVTVSS	low polyreactivity
QVQLVESGGGLVQAGGSVRISCAASGRTFWYYAMGVYIQAPRKERELLAAITGRGGSTHYADSVKGRLTISRDNAKNTVYLPMISLKPEDTAVYYCAKDHYYRFPWGTGGYRGQGTQVTVSS	low polyreactivity
QFQLVESGGCLVQAGGSLRLSCAASGFTFGYNAMGWYRQAPGKERELVAVITQSGGRTYYADSVKGRFTISRDNAKYTVYVQMNSLKPEDTAVYYCADRYRLPPYYYWGQGSQVTVSS	high polyreactivity
QVQLVESGGGLVQAGGSLRLSCAASGSTIDVYTMGWYRQAPGKERELVAAISRGSSTYYADSVKGRFTISRDNAKYTVYVQMNSLKPEDTAVYYCNAVTSRKYRRYGYGYWGQGTQVTVSS	high polyreactivity
QVQLVDSGGGLVQAGGSLRLSCAASGSNFDDYAMGWYRQAPGKERELVAAISSSGTSTYYADSVKGRFTISRDNAKNTVYLQMNSLKPEDTAVYYCAAKKKYHYVASYKRFEYWGQGTQVTVSS	low polyreactivity
QVQLVESGGGLVQAGGSLRLSCAASGFTLDWYAMGWYRQAPGKERELVAAIWSAGTTYYADSVKGRFTISRDNAKNTVYLQMNSLKPEDTAVYYCATVSDYDFGLYDYWGQGSQVTVSS	low polyreactivity
QVQLVESGGGLVQAGGSLRLSCAASGSTFGDNTMGWYRQAPGKERELVASISKSGGSTYYADSVKGRFTISRDNAKNTVYLQMNSLKPEDTAVYYCNRVTHYIRFDYWGQGTQVTVSS	low polyreactivity
QVQLVVSGGGLVQAGGSLRLSCAASGSILDSNAMGWYRQAPGKERELVAAITSGGSTYYADSVKGRFTISRDNAKNTVYLQMNSLKPEDTAVYYCNANGVQYFLYGYWGQGTQVTVSS	low polyreactivity
QVQLVESGGGLVQAGGSLRLSCAASGSIFYPNVMGWYRQAPGKERELVATISWSGGNTYYADSVKGRFTISRDNAKNTVYLQMNSLKPEDTAVYYCAADQWSQDYDYWGQGTQVTVSS	low polyreactivity

* * *

experiment: yeast display, Sf9 membrane polyspecificity reagent, FACS + sequencing; frameworks hold sequencing errors
property: polyreactivity (PSR sort gate)

biopolymer sequence	property	result
QVQLVESGGGLVQAGGSLRLSCAPSGRIFSYNTMGWYRQAAGKERELVAAISSSGGSTYYADSVKGRFTISRDNAKNTFYLQMNSLKPEDTALYYCNAVGRFSTRREYWGQGTQVTVSS	polyreactivity (PSR sort gate)	high polyreactivity
QVQLVESGGGVVQAGGSLRLSCAASGFIFHQNAMGWYRPAPGKERELVAAITRSGTSTYYADSVKGRFTISRDYAKNTVYLQMYSLKPEDTAVYYCANDPVRVGRFGYEYWGQGTQVTVSS	polyreactivity (PSR sort gate)	low polyreactivity
QVQLVESGGGLVQAGGSLRLSCAASGSTFYGYTMGWSRQAPGKERELVAVITSGGSTYYADSVKGRFTISRDNAKNTVYLQMNSLKPDDTAVYYCAQRYGYPAYGRPWRIGRTYDYWGQGTQVTVSS	polyreactivity (PSR sort gate)	low polyreactivity
QVQLLESGGGLVQAGGSLRLSCAASRRIIYGYAMGWYRQAPGKERELVAAITATYYADSVKGRFTISRDNPKNTVYLLMNSLKAVDTAVYYCNAYLSPKQPLSPQDPTFEGGYWGQCTQVTVSS	polyreactivity (PSR sort gate)	low polyreactivity
QVQLVESGGGLVQAGGSLRLSCAASGSILTVYAMGWYRQAPGKERELVARIRSGDRTYYADSVKGRFTISRDNAKNSVYLQMNSLKPEDTAVYYFAAGSQLRYYHTNWDSFNYWGQGTQVTVSS	polyreactivity (PSR sort gate)	low polyreactivity
QVQLVESCGGLVQAGGSLRLSCAASGLIFPVYAMGWYRQAPGKEREFVASIWRGGTTYYADSVKGRFTISRDNEKNTVYLQMNSLKPEDTAVYYCAARDYPRGLVFPFTKYDYWGQGTQVTVSS	polyreactivity (PSR sort gate)	high polyreactivity
QVQLVESGGGLVQAGGSLRLSCAASGSTFYYNAMGWYRQAPGKERELVADISWRGGITYYADSVKGRFTISRDNAKNTVYLQMNSLKPEDTAVYYCAADIYPDWIYLLYGYWGQGTQVTVSS	polyreactivity (PSR sort gate)	low polyreactivity
QVQLVESGGGLVQAGGSLRLSCAASGFIFWRNAMGWYSQAPGQERELVAAITSGDRTNYADSVKGRFTISRDNAKNTVYLQMNSLKPEDTAVYYCNARRYRLVSYDYWGQGTQVTVSS	polyreactivity (PSR sort gate)	low polyreactivity
QVQLVESGGRLVQAGGSLRISCDASGFIFVRNAMGWSRQAPGTEWELVAASTLCTGSTYYADSVKGRFTISRDNAKITVYLQMKSLKPEDTAVYYCNANKRIRPYRPGMDYWGHGTQVTVSS	polyreactivity (PSR sort gate)	high polyreactivity
QVQLVESGGGLVQAGCSLRLSCASSGRIFYGNAMGWYRQAPGKERELVAAISKSGASTYYADSVKGRFTISRDNAKNTVYLQMNSLKPEDTAVYYCAAETPRRKYNYWGQGSQVTVSS	polyreactivity (PSR sort gate)	high polyreactivity
QVQLVESGGGLVQAGGSLRLSCAASGSIFSIYAMGWYRQAPGKERELVASITRSSGRTYYADSVKGRFTISRDNAKNTVYLQMNSLKPEDTAVYYCNAVWNTFISGRSYDYWGQGTQVTVSS	polyreactivity (PSR sort gate)	low polyreactivity
